# System: methicillin resistant Staphylococcus aureus (MRSA) Mu50
# PROTOCOL DETAILS: MIC of antibiotics against MRSA Mu50 with or without spermine
# Assay type: cell-based
# CONDITION SUMMARY: Staphylococcus aureus, MRSA; no spermine; read-out: MICs in the presence or absence of spermine (1 mM): No add
ENDPOINT LABEL: MIC

molecule="CN(C)[C@@H]1C(O)=C(C(N)=O)C(=O)[C@@]2(O)C(O)=C3C(=O)c4c(O)cccc4[C@@](C)(O)[C@H]3C[C@@H]12 [Tetracycline]" endpoint_label=MIC result="32 µg/mL"
molecule="CCN1CCN(C(=O)N[C@@H](C(=O)N[C@@H]2C(=O)N3[C@@H]2SC(C)(C)[C@@H]3C(=O)O)c2ccccc2)C(=O)C1=O [Piperacillin]" endpoint_label=MIC result="32 µg/mL"
molecule="Cc1onc(-c2ccccc2Cl)c1C(=O)N[C@@H]1C(=O)N2[C@@H]1SC(C)(C)[C@@H]2C(=O)O [Cloxacillin]" endpoint_label=MIC result="≥ 256 µg/mL"
molecule="CO/N=C(\\C(=O)N[C@@H]1C(=O)N2C(C(=O)O)=C(CSc3nc(=O)c(=O)[nH]n3C)CS[C@H]12)c1csc(N)n1 [Ceftriaxone]" endpoint_label=MIC result="> 512 µg/mL"
molecule="CC(=O)OCC1=C(C(=O)O)N2C(=O)[C@@H](NC(=O)Cc3cccs3)[C@H]2SC1 [Cephalothin]" endpoint_label=MIC result="32 µg/mL"
molecule="CC1(C)S[C@@H]2[C@H](NC(=O)[C@H](N)c3ccccc3)C(=O)N2[C@H]1C(=O)O [Ampicillin]" endpoint_label=MIC result="≥ 32 µg/mL"
molecule="CC1(C)S[C@@H]2[C@H](NC(=O)[C@H](C(=O)O)c3ccsc3)C(=O)N2[C@H]1C(=O)O [Ticarcillin]" endpoint_label=MIC result="256 µg/mL"

---

# Tested on: methicillin resistant Staphylococcus aureus (MRSA) Mu50
# PROTOCOL DETAILS: MIC of antibiotics against MRSA Mu50 with or without spermine
# Format: cell-based
# CONDITION SUMMARY: with 1 mM spermine
ENDPOINT LABEL: MICs in the presence or absence of spermine (1 mM): Spermine (µg/mL)

compound="CC1(C)S[C@@H]2[C@H](NC(=O)Cc3ccccc3)C(=O)N2[C@H]1C(=O)O [Penicillin G]" target_of_assay="methicillin resistant Staphylococcus aureus (MRSA) Mu50" recorded_number=0.25
compound="CO/N=C(\\C(=O)N[C@@H]1C(=O)N2C(C(=O)O)=C(CSc3nc(=O)c(=O)[nH]n3C)CS[C@H]12)c1csc(N)n1 [Ceftriaxone]" target_of_assay="methicillin resistant Staphylococcus aureus (MRSA) Mu50" recorded_number=16
compound="CCN1CCN(C(=O)N[C@@H](C(=O)N[C@@H]2C(=O)N3C(C(=O)O)=C(CSc4nnnn4C)CS[C@H]23)c2ccc(O)cc2)C(=O)C1=O [Cefoperazone]" target_of_assay="methicillin resistant Staphylococcus aureus (MRSA) Mu50" recorded_number=16
compound="CC1(C)S[C@@H]2[C@H](NC(=O)C(C(=O)O)c3ccccc3)C(=O)N2[C@H]1C(=O)O (some centres unmarked) [Carbenicillin]" target_of_assay="methicillin resistant Staphylococcus aureus (MRSA) Mu50" recorded_number=4
compound="CCN1CCN(C(=O)N[C@@H](C(=O)N[C@@H]2C(=O)N3[C@@H]2SC(C)(C)[C@@H]3C(=O)O)c2ccccc2)C(=O)C1=O [Piperacillin]" target_of_assay="methicillin resistant Staphylococcus aureus (MRSA) Mu50" recorded_number=2
compound="CO/N=C(\\C(=O)N[C@@H]1C(=O)N2C(C(=O)O)=C(COC(C)=O)CS[C@H]12)c1csc(N)n1 [Cefotaxime]" target_of_assay="methicillin resistant Staphylococcus aureus (MRSA) Mu50" recorded_number=1
compound="O=C(Cc1cccs1)N[C@@H]1C(=O)N2C(C(=O)[O-])=C(C[n+]3ccccc3)CS[C@H]12 [Cephaloridine]" target_of_assay="methicillin resistant Staphylococcus aureus (MRSA) Mu50" recorded_number=0.25
compound="CN(C)[C@@H]1C(O)=C(C(N)=O)C(=O)[C@@]2(O)C(O)=C3C(=O)c4c(O)cccc4[C@@](C)(O)[C@H]3C[C@@H]12 [Tetracycline]" target_of_assay="methicillin resistant Staphylococcus aureus (MRSA) Mu50" recorded_number=8
compound="CC(C)(O/N=C(\\C(=O)N[C@@H]1C(=O)N2C(C(=O)[O-])=C(C[n+]3ccccc3)CS[C@H]12)c1csc(N)n1)C(=O)O [Ceftazidime]" target_of_assay="methicillin resistant Staphylococcus aureus (MRSA) Mu50" recorded_number=4
compound="CC(=O)OCC1=C(C(=O)O)N2C(=O)[C@@H](NC(=O)Cc3cccs3)[C@H]2SC1 [Cephalothin]" target_of_assay="methicillin resistant Staphylococcus aureus (MRSA) Mu50" recorded_number=4
compound="CC1(C)S[C@@H]2[C@H](NC(=O)[C@H](NC(=O)N3CCNC3=O)c3ccccc3)C(=O)N2[C@H]1C(=O)O [Azlocillin]" target_of_assay="methicillin resistant Staphylococcus aureus (MRSA) Mu50" recorded_number=0.5
compound="O=C(N[C@H](CO)[C@H](O)c1ccc([N+](=O)[O-])cc1)C(Cl)Cl [Chloramphenicol]" target_of_assay="methicillin resistant Staphylococcus aureus (MRSA) Mu50" recorded_number=2
compound="Cc1onc(-c2ccccc2)c1C(=O)N[C@@H]1C(=O)N2[C@@H]1SC(C)(C)[C@@H]2C(=O)O [Oxacillin]" target_of_assay="methicillin resistant Staphylococcus aureus (MRSA) Mu50" recorded_number=1
compound="CC1(C)S[C@@H]2[C@H](NC(=O)[C@H](N)c3ccccc3)C(=O)N2[C@H]1C(=O)O [Ampicillin]" target_of_assay="methicillin resistant Staphylococcus aureus (MRSA) Mu50" recorded_number=2

---

# Test system: methicillin resistant Staphylococcus aureus (MRSA) Mu50
# PROTOCOL DETAILS: MIC of antibiotics against MRSA Mu50 with or without spermine
# Assay type: cell-based
# CONDITION SUMMARY: Staphylococcus aureus, MRSA; no spermine; read-out: MICs in the presence or absence of spermine (1 mM): No add
Each entry below carries its recorded MIC.
ENDPOINT LABEL: MIC (µg/mL)

compound=CC1(C)S[C@@H]2[C@H](NC(=O)[C@H](N)c3ccc(O)cc3)C(=O)N2[C@H]1C(=O)O endpoint_label=MIC bound_operator== recorded_number=16
compound=O=C(N[C@H](CO)[C@H](O)c1ccc([N+](=O)[O-])cc1)C(Cl)Cl endpoint_label=MIC bound_operator== recorded_number=8
compound=Cc1onc(-c2ccccc2)c1C(=O)N[C@@H]1C(=O)N2[C@@H]1SC(C)(C)[C@@H]2C(=O)O endpoint_label=MIC bound_operator=≥ recorded_number=256
compound=CC(C)(O/N=C(\C(=O)N[C@@H]1C(=O)N2C(C(=O)[O-])=C(C[n+]3ccccc3)CS[C@H]12)c1csc(N)n1)C(=O)O endpoint_label=MIC bound_operator== recorded_number=256
compound=O=C(Cc1cccs1)N[C@@H]1C(=O)N2C(C(=O)[O-])=C(C[n+]3ccccc3)CS[C@H]12 endpoint_label=MIC bound_operator== recorded_number=16
compound=CCN1CCN(C(=O)N[C@@H](C(=O)N[C@@H]2C(=O)N3C(C(=O)O)=C(CSc4nnnn4C)CS[C@H]23)c2ccc(O)cc2)C(=O)C1=O endpoint_label=MIC bound_operator=> recorded_number=512
compound=CO/N=C(\C(=O)N[C@@H]1C(=O)N2C(C(=O)O)=C(COC(C)=O)CS[C@H]12)c1csc(N)n1 endpoint_label=MIC bound_operator== recorded_number=128
compound="CC1(C)S[C@@H]2[C@H](NC(=O)C(C(=O)O)c3ccccc3)C(=O)N2[C@H]1C(=O)O (stereo partly drawn)" endpoint_label=MIC bound_operator== recorded_number=256
compound=CC1(C)S[C@@H]2[C@H](NC(=O)[C@H](NC(=O)N3CCNC3=O)c3ccccc3)C(=O)N2[C@H]1C(=O)O endpoint_label=MIC bound_operator== recorded_number=16

---

Each entry below carries its recorded MICs to carbenicillin in the indicated concentration of polyamines.
# Test system: P. aeruginosa PAO1
# PROTOCOL DETAILS: MIC of antibiotics against P. aeruginosa PAO1 with or without polyamines
# Type: cell-based
# CONDITION SUMMARY: 20 mM polyamine
ENDPOINT LABEL: MICs to carbenicillin in the indicated concentration of polyamines (µg/mL)

record_smiles=NCCCCNCCCN target_of_assay="P. aeruginosa PAO1" recorded_number=4
record_smiles=NCCCCCN target_of_assay="P. aeruginosa PAO1" recorded_number=16
record_smiles=NCCCCN target_of_assay="P. aeruginosa PAO1" recorded_number=16
record_smiles=NCCCNCCCCNCCCN target_of_assay="P. aeruginosa PAO1" recorded_number=4

---

# Test system: P. aeruginosa PAO1
# PROTOCOL DETAILS: MIC of antibiotics against P. aeruginosa PAO1 with or without polyamines
# Format: cell-based
# CONDITION SUMMARY: 10 mM polyamine
Each entry below carries its recorded MICs to carbenicillin in the indicated concentration of polyamines.
ENDPOINT LABEL: MICs to carbenicillin in the indicated concentration of polyamines (µg/mL)

record_smiles=NCCCCN units=µg/mL recorded_number=32
record_smiles=NCCCCCN units=µg/mL recorded_number=32
record_smiles=NCCCCNCCCN units=µg/mL recorded_number=8
record_smiles=NCCCNCCCCNCCCN units=µg/mL recorded_number=4
